System: SF-268 CNS
EXPERIMENT_DESCRIPTION: NCI-60 one-dose screen, 48 h
RECORDED_CONDITIONS: 10 µM
Description: Cells are grown in 96 well plates and exposed to the test compound for 48 hours. Compounds are tested at a single concentration, which is 10^-5 M for most compounds. The reported endpoint is percent growth (GI% or GIPRCNT), where numbers from 0 - 100% represent growth inhibition, and numbers from -100% - 0 represent cell death. For example, a value of 40 represents 60% growth inhibition. A value of 0 means no net growth occurred over the course of the experiment. […]
This is part of a sample that, as a whole, favours compounds with a hit. Of some 83,000 tested, about 20% had one in any assay. The source made the active and inactive calls. How the source made its calls: active means growth percent below 10; inactive means the rest.
Give your call using only these classes: 1 (yes) (active), 0 (no) (inactive)

Write down the call the test reported for this compound. Item: CCOC(=O)N/C(=C1/OCCN1C)[P+](c1ccccc1)(c1ccccc1)c1ccccc1
0 (no)

Another compound: NS(=O)(=O)c1ccc(N=Nc2c(O)n(CC(=O)Nc3ccccc3Br)c3ccccc23)cc1
0 (no)

Another compound: CONC[C@]1(C)C=C2C(=O)[C@](C)(O)C3(CC3)C(C)=C2[C@H]1O
1 (yes)

Another compound: COc1ccc(N(C)c2cc(C#N)nc3ccccc23)cc1N
0 (no)

Another compound: COc1ccc(-c2cc(-c3cc(C(=O)c4ccccc4)n4ccc(C)cc34)nc(N)c2C#N)cc1
0 (no)

Another compound: O=C(N/N=C/c1ccc(B(O)O)o1)c1[nH]c2ccc(Br)cc2c1-c1ccccc1
0 (no)

Another compound: COC[C@@H](CC(C)C)N=C1NC(=O)/C(=C/c2ccc3ncsc3c2)N1
0 (no)

Another compound: Nc1n[nH]c2cccc(C#Cc3cccc(NC(=O)Nc4cc(C(F)(F)F)cc(C(F)(F)F)c4)c3)c12
1 (yes)

Another compound: CC[C@@]1(O)C(=O)OCc2c1cc1n(c2=O)Cc2c-1nc1cc(F)c(C)c3c1c2[C@@H](N)CC3
1 (yes)
